# Test: qHTS of pediatric cancer cell lines to identify multiple opportunities for drug repurposing: Primary screen for DAOY cells (AID 1347090); note: nearly all actives have a fitted effect of over 55% in size
# Measurement conditions: DAOY medulloblastoma viability, CellTiter-Glo luminescence, 48 h; series mostly up to 46 µM
Inconclusive results are not listed. Activity calls are given as the source filed them. Calls come from the whole dose curve; as a rule, active = well fitted cell-killing curve with a large enough effect; inconclusive = small, poorly fitted or top-dose-only effect; inactive = flat fitted curve, though single readings scatter.
Outcome field: choose from 1 (active), -1 (inactive)

These recorded examples may help you get a feel for the data.
- CCn1cc(C(=O)O)c(=O)c2cc(F)c(N3CCNC(C)C3)c(F)c21 (stereo not given): -1
- CS(=O)(=O)c1ccc(C(=O)Nc2ccc(Cl)c(-c3ccccn3)c2)c(Cl)c1: -1
- NC(=O)c1ccc(-c2nc(-c3ccc4c(c3)OCO4)c(-c3ccccn3)[nH]2)cc1: -1
- C[C@]12CC[C@H](O)CC1=CC[C@@H]1[C@H]2CC[C@]2(C)C(c3cccnc3)=CC[C@H]12: -1

For this compound, state the assay outcome: CC(C)(C)OC(=O)CN(Cc1ccc(Cl)cc1)Cc1ccc([N+](=O)[O-])s1 -1

Recorded test outcome, item CC(C)NCC(O)COc1ccc(COCCOC(C)C)cc1 (stereo not given) -1

# fetch the recorded call for COc1cc(Oc2ccnc3cc(OC)c(OC)cc23)ccc1NC(=O)NC(C)c1nccs1 (stereo not given) here -1

Hi, do you know how O=C(O)CCc1ccc(NCc2cccc(Oc3ccccc3)c2)cc1 came out in this test? -1

Field: outcome | Entry: CC1(C)CNc2cc(NC(=O)c3cccnc3NCc3ccncc3)ccc21 1

For this compound, state the assay outcome: Nc1nc2[nH]cc(CCc3ccc(C(=O)N[C@@H](CCC(=O)O)C(=O)O)cc3)c2c(=O)[nH]1 -1

====

# Test: Cell Proliferation Assay against the TMD8 Cell Line (Caspase readout at 16 hrs) (AID 651712);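 note: 0% = DMSO and 100% = 9.2 µM bortezomib caspase activation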
# Measurement conditions: TMD8 lymphoma cells, caspase activation luminescence; series mostly up to 46.1 µM
# Description: One class of targeted therapeutics showing early clinical success in killing of ABC DLBCL lines are small molecule inhibitors of the Bruton tyrosine kinase (BTK) 11. Thus, we chose to investigate what additional compounds, if any, would synergize with the BTK inhibitor Ibrutinib (PCI-32765). […]
Inconclusive results are not listed. Active and inactive are the calls of the source. The call rests on the fitted dose curve; in most records, active means well fitted activation curve with a large enough effect; inconclusive means small, poorly fitted or top-dose-only effect; inactive means flat fitted curve, though single readings scatter.
Answer with one of the outcomes given here: active, inactive

A selection of reference data follows.
* NC(=O)c1ccc(-c2nc(-c3ccc4c(c3)OCCO4)c(-c3ccccn3)[nH]2)cc1 | inactive
* CCc1cc(Nc2nccc(-c3c(-c4ccc(OC)c(C(=O)Nc5c(F)cccc5F)c4)nc4ccccn34)n2)c(OC)cc1N1CCC(N2CCN(S(C)(=O)=O)CC2)CC1 | inactive
* CCOc1cc(C(=O)Nc2ccc(Cl)c(-c3nc4ccccc4[nH]3)c2)cc(OCC)c1OCC | inactive

Assay outcome for Nc1nc2[nH]cc(CCc3ccc(C(=O)N[C@@H](CCC(=O)O)C(=O)O)cc3)c2c(=O)[nH]1 : what was it? inactive

Could you please tell me the result logged for CC[C@@H](C)[C@H](NC(=O)[C@H](CC1CCCCC1)NC(=O)c1ccno1)C(=O)N1CCC2(CCc3ccccc32)CC1 in this assay? inactive

How was CCN(CCCO)CCCOc1ccc2c(Nc3cc(CC(=O)Nc4cccc(F)c4)[nH]n3)ncnc2c1 classified in this test? inactive

For this compound, state the assay outcome: CN(C)C(=O)c1ccc(S(=O)(=O)c2ccc(NC(=O)[C@@](C)(O)C(F)(F)F)c(Cl)c2)cc1 inactive

Record request — test call for CS(=O)(=O)c1cccc(CNc2nc(Nc3ccc4c(c3)CCC(=O)N4)ncc2C(F)(F)F)c1 inactive
